Let's look at some compounds and their measured log10(EC50).
molecular target: GLP-1R (Homo sapiens); assay: GLP-1R Activation - cAMP Assay 1; format: cell-based; details: cAMP increase in CHO cells stably expressing GLP-1R; 30 minutes incubation; 10 point dose response
Parameter value (number): base-10 log of EC50 in nM.

For orientation, consider the following solved cases.
C#Cc1ccc(COc2cccc(C3CCN(Cc4nc5ccc(C(=O)O)cc5n4CCOC)CC3)n2)cc1 [Example 13]: 1.35
COCCn1c(CN2CCC(c3cccc(OCc4ccc(-c5ccccc5)cc4)n3)CC2)nc2ccc(C(=O)O)cc21 [Example 12]: 3.03

Prompt: May I ask what log10(EC50) has been recorded for COCCn1c(CN2CCC(c3cccc(OCc4cccc5c4OC(F)(F)O5)n3)CC2)nc2ccc(C(=O)O)cc21 [Example 1] ?
Response: 1.45

Prompt: # iterate: COCCn1c(CN2CCC(c3cccc(OCc4ccc(C#N)c5cccnc45)n3)CC2)nc2ccc(C(=O)O)cc21 [Example 42]
Response: 0.82

Prompt: Same thing, different compound: COCCn1c(CN2CCC(c3cccc(OCc4cccc5scnc45)n3)CC2)nc2ccc(C(=O)O)cc21 [Example 34]
Response: 1.30

Prompt: Now give it for COCCn1c(CN2CCC(c3cccc(OCc4ccc(C(C)(C)O)cc4)n3)CC2)nc2ccc(C(=O)O)cc21 [Example 29] too.
Response: 3.16

Prompt: Same question for COCCn1c(CN2CCC(c3cccc(OCc4ccc5ncsc5c4)n3)CC2)nc2ccc(C(=O)O)cc21 [Example 28] please.
Response: 1.78

Prompt: Then COCCn1c(CN2CCC(c3cccc(OCc4ccc5cccnc5c4)n3)CC2)nc2ccc(C(=O)O)cc21 [Example 36] ?
Response: 2.09

Prompt: Also COCCn1c(CN2CCC(c3cccc(OCc4ccc5c(c4)OC(F)(F)O5)n3)CC2)nc2ccc(C(=O)O)cc21 [Example 6] , if possible.
Response: 1.02

Prompt: Also check COCCn1c(CN2CCC(c3cccc(OCc4ccc(Cl)c5ccccc45)n3)CC2)nc2ccc(C(=O)O)cc21 [Example 4]
Response: 1.60

---

# EC50 per record follows
biological target: GLP-1R (Homo sapiens); experiment: GLP-1R Activation - cAMP Assay 1; format: cell-based; settings: cAMP increase in CHO cells stably expressing GLP-1R; 30 minutes incubation; 10 point dose response
Answer in nM, number only, no unit symbol.

Study these solved cases before continuing.
COCCn1c(CN2CCC(c3cccc(OCc4ccc5cnccc5c4)n3)CC2)nc2ccc(C(=O)O)cc21 [Example 26]: 41.3
COCCn1c(CN2CCC(c3cccc(OCc4ccc(Cl)c5occc45)n3)CC2)nc2ccc(C(=O)O)cc21 [Example 31]: 29
COCCn1c(CN2CCC(c3cccc(OCc4cccc(-c5noc(C)n5)c4)n3)CC2)nc2ccc(C(=O)O)cc21 [Example 10]: 66.9
COCCn1c(CN2CCC(c3cccc(OCc4ccc5c(c4)OCO5)n3)CC2)nc2ccc(C(=O)O)cc21 [Example 7]: 4920

Prompt: Report EC50 for COCCn1c(CN2CCC(c3cccc(OCc4ccc5c(c4)C(=O)OC5)n3)CC2)nc2ccc(C(=O)O)cc21 [Example 44] please.
Response: 109

Prompt: Another compound to check: COCCn1c(CN2CCC(c3cccc(OCc4ccc(C(=O)N(C)C)cc4F)n3)CC2)nc2ccc(C(=O)O)cc21 [Example 11]
Response: 9910

---

target: GLP-1R (Homo sapiens, UniProt P43220); test: GLP-1R Activation - cAMP Assay 2; type: cell-based; conditions: cAMP increase in CHO cells stably expressing GLP-1R; pre-spotted agonists; assay buffer or 100% Human Plasma (not given); 30 minutes
Sequence (P43220 24-463): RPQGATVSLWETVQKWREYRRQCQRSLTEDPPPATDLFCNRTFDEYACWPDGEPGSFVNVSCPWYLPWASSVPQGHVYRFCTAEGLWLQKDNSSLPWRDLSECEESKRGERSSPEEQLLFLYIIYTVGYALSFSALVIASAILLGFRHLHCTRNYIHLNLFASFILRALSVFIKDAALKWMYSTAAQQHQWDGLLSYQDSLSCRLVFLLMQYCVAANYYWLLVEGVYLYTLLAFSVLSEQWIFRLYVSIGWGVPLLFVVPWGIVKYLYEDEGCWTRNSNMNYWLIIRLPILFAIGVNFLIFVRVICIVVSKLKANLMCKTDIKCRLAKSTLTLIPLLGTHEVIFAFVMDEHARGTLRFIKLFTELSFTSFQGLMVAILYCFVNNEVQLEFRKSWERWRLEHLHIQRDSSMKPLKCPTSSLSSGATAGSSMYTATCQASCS
A collection of compounds and their measured EC50
The reply should be a number in nM, with the unit left off.

In the examples that follow, each entry is paired with its recorded EC50.
O=C(O)c1ccc2nc(CN3CCC(c4cccc(OCc5ccc(-n6ccnn6)cc5F)n4)CC3)n(C[C@@H]3CCO3)c2c1 [Example 41]: 0.3
Cn1cc(-c2ccc(COc3cccc(C4CCN(Cc5nc6ccc(C(=O)O)cc6n5C[C@@H]5CCO5)CC4)n3)c(F)c2)nn1 [Example 18]: 1.5
O=C(O)c1ccc2nc(CN3CCC(c4cccc(OCc5ccc(-c6cnn(C(F)F)c6)cc5F)n4)CC3)n(C[C@@H]3CCO3)c2c1 [Example 19]: 0.2

Prompt: Returns the measured EC50 for the input compound. Input: Cn1cc(-c2ccc(COc3cccc(C4CCN(Cc5nc6ccc(C(=O)O)cc6n5C[C@@H]5CCO5)CC4)n3)c(F)c2)cn1 [Example 15]
Response: 0.5

Prompt: Now the same for O=C(O)c1ccc2nc(CN3CCC(c4cccc(OCc5ccc(-n6cc(C7CC7)nn6)cc5F)n4)CC3)n(C[C@@H]3CCO3)c2c1 [Example 40]
Response: 1.3

Prompt: Next: O=C(O)c1ccc2nc(CN3CCC(c4cccc(OCc5ccc(-c6cn(C7CC7)nn6)cc5F)n4)CC3)n(C[C@@H]3CCO3)c2c1 [Example 23]
Response: 1.7

Prompt: What about this compound? O=C(O)c1ccc2nc(CN3CCC(c4cccc(OCc5ccc(-c6cn(C7COC7)nn6)cc5F)n4)CC3)n(C[C@@H]3CCO3)c2c1 [Example 24]
Response: 1.7

Prompt: For O=C(O)c1ccc2nc(CN3CCC(c4cccc(OCc5ccc(-c6cnc(C7CC7)o6)cc5F)n4)CC3)n(C[C@@H]3CCO3)c2c1 [Example 20] then?
Response: 1.9

---

target: GLP-1R (Homo sapiens, UniProt P43220); assay: GLP-1R Activation - cAMP Assay 1; type: cell-based; conditions: cAMP increase in CHO cells stably expressing GLP-1R; 30 minutes incubation; 10 point dose response
MEASUREMENT_TYPE: pEC50
Scale explanation: pEC50 corresponds to minus log10 of a concentration expressed in moles per litre.

COCCn1c(CN2CCC(c3cccc(OCc4ccc(C#N)c5ccccc45)n3)CC2)nc2ccc(C(=O)O)cc21: 7.95
COCCn1c(CN2CCC(c3cccc(OCc4c(F)cc(C(N)=O)cc4F)n3)CC2)nc2ccc(C(=O)O)cc21: 5.66
COCCn1c(CN2CCC(c3cccc(OCc4ccc(S(C)(=O)=O)cc4)n3)CC2)nc2ccc(C(=O)O)cc21: 5.92
COCCn1c(CN2CCC(c3cccc(OCc4cccc5c4cnn5C)n3)CC2)nc2ccc(C(=O)O)cc21: 5.88
COCCn1c(CN2CCC(c3cccc(OCc4ccc5ncccc5c4)n3)CC2)nc2ccc(C(=O)O)cc21: 7.49
COCCn1c(CN2CCC(c3cccc(OCc4ccc5nonc5c4)n3)CC2)nc2ccc(C(=O)O)cc21: 7.18

Prompt: Which pEC50 value belongs to `COCCn1c(CN2CCC(c3cccc(OCc4ccc(COC)cc4)n3)CC2)nc2ccc(C(=O)O)cc21` ?
Response: 6.53

Prompt: Check `COCCn1c(CN2CCC(c3cccc(OCc4ccc5ccncc5c4)n3)CC2)nc2ccc(C(=O)O)cc21` too.
Response: 7.31

---

Target: GLP-1R (Homo sapiens, UniProt P43220)
Assay: GLP-1R Activation - cAMP Assay 1
Assay type: cell-based
Details: cAMP increase in CHO cells stably expressing GLP-1R; 30 minutes incubation; 10 point dose response
Protocol: GLP-1R Activation—cAMP Assay 1 GLP-1R activation by a compound of the present disclosure was quantified by measuring cAMP increase in CHO cells stably expressing GLP-1R (MultiSpan product #C1267-1a). […] The tested GLP-1 compound was added to the cells in a 10 point dose response followed by a 30 minutes incubation at 37° C., 5% CO2. cAMP concentration increase was then detected using Cisbio's cAMP Gs Dynamic Kit (product #62AM4PEC) according to the manufacturer's protocol. […]
MEASUREMENT_TYPE: pEC50
To interpret pEC50, take it as minus log10 of a concentration measured in moles per litre.

Here are 3 compounds together with their reported answers.
COCCn1c(CN2CCC(c3cccc(OCc4cccc5occc45)n3)CC2)nc2ccc(C(=O)O)cc21 [Example 32]: 6.58
COCCn1c(CN2CCC(c3cccc(OCc4ccc(C(O)(C(F)(F)F)C(F)(F)F)cc4)n3)CC2)nc2ccc(C(=O)O)cc21 [Example 2]: 5.90
COCCn1c(CN2CCC(c3cccc(OCc4ccc5c(c4)COC5=O)n3)CC2)nc2ccc(C(=O)O)cc21 [Example 43]: 6.46

Prompt: Which value of pEC50 has been reported for COCCn1c(CN2CCC(c3cccc(OCc4cccc5ccccc45)n3)CC2)nc2ccc(C(=O)O)cc21 [Example 5] in the records?
Response: 7.30

Prompt: Next compound: COCCn1c(CN2CCC(c3cccc(OCc4ccc(C5CC5)cc4)n3)CC2)nc2ccc(C(=O)O)cc21 [Example 38]
Response: 7.23
